SYSTEM: Ras-Raf binding
Construct: fused on or other part: GST tag on Ras was cleaved off with PreScission protease before the test
PROTOCOL_TEXT: In vitro binding assay: Ras-Raf binding inhibition (GST-Raf on resin, GTPγ[35S]-labeled Ras, scintillation counting)
RECORDED_CONDITIONS: GST-Raf fusion protein on resin, radioactive Ras, compound dissolved in 10% DMSO
READOUT_TYPE: IC50 (µM)

Known IC50 results, listed for orientation:
O=C1/C(=C/c2ccccc2Oc2ccccc2)SC(=S)N1NC1=NS(=O)(=O)c2ccccc21
100
O=C1/C(=C/c2ccc(Oc3ccccc3)cc2)SC(=S)N1NC1=NS(=O)(=O)c2ccccc21
70
O=C1/C(=C/c2ccccc2OCCOc2ccc([N+](=O)[O-])cc2)SC(=S)N1NC1=NS(=O)(=O)c2ccccc21
90
O=C1/C(=C/c2ccc([N+](=O)[O-])cc2[N+](=O)[O-])SC(=S)N1NC1=NS(=O)(=O)c2ccccc21
200

a: O=C1/C(=C/c2ccccc2OCCOc2ccccc2)SC(=S)N1NC1=NS(=O)(=O)c2ccccc21
b: Cc1ccc(OCCOc2ccccc2/C=C2\SC(=S)N(NC3=NS(=O)(=O)c4ccccc43)C2=O)cc1
c: O=C1/C(=C/c2ccc(Br)cc2)SC(=S)N1NC1=NS(=O)(=O)c2ccccc21
Please list these in order of increasing IC50. Thank you! Lab note: record answer as labels in requested order.
b, a, c
(b: 100 µM, a: 160 µM, c: 400 µM)

---

SYSTEM: Ras-Raf binding
Construct: fused on or other part: GST tag on Ras was cleaved off with PreScission protease before the test
PROTOCOL_TEXT: In vitro binding assay: Ras-Raf binding inhibition (GST-Raf on resin, GTPγ[35S]-labeled Ras, scintillation counting)
RECORDED_CONDITIONS: GST-Raf fusion protein on resin, radioactive Ras, compound dissolved in 10% DMSO
From the text: • 1) A fusion protein of Raf (target protein of Ras) and GST (glutathione S-transferase) was expressed in Escherichia coli using GST fusion protein expression vector (pGEX-6P-1 vector (GE Healthcare)). The expressed GST-Raf fusion protein was immobilized on an affinity carrier for purification (glutathione Sepharose 4B: resin (GE Healthcare)). • 2) Radioisotope-labeled Ras GTPγ[^35S] […]
READOUT_TYPE: IC50 (µM)

CC(C)(C)OC(=O)NCCOc1cccc(C=C2SC(=S)N(NC3=NS(=O)(=O)c4ccccc43)C2=O)c1
360

1: O=C1/C(=C/c2ccc(OCc3ccccc3)cc2)SC(=S)N1NC1=NS(=O)(=O)c2ccccc21
2: O=C1/C(=C/c2cccc(Oc3ccccc3)c2)SC(=S)N1NC1=NS(=O)(=O)c2ccccc21
# argmax over IC50 for candidates 1 and 2 I would appreciate it if you answered with the label of your choice.
1
